Source listed as patent US10047075B2.

Each entry below carries its recorded Ki.
# target: hNav1.7 (Homo sapiens, UniProt Q15858)
# Sequence (Q15858 1-1977 isoform Q15858-3): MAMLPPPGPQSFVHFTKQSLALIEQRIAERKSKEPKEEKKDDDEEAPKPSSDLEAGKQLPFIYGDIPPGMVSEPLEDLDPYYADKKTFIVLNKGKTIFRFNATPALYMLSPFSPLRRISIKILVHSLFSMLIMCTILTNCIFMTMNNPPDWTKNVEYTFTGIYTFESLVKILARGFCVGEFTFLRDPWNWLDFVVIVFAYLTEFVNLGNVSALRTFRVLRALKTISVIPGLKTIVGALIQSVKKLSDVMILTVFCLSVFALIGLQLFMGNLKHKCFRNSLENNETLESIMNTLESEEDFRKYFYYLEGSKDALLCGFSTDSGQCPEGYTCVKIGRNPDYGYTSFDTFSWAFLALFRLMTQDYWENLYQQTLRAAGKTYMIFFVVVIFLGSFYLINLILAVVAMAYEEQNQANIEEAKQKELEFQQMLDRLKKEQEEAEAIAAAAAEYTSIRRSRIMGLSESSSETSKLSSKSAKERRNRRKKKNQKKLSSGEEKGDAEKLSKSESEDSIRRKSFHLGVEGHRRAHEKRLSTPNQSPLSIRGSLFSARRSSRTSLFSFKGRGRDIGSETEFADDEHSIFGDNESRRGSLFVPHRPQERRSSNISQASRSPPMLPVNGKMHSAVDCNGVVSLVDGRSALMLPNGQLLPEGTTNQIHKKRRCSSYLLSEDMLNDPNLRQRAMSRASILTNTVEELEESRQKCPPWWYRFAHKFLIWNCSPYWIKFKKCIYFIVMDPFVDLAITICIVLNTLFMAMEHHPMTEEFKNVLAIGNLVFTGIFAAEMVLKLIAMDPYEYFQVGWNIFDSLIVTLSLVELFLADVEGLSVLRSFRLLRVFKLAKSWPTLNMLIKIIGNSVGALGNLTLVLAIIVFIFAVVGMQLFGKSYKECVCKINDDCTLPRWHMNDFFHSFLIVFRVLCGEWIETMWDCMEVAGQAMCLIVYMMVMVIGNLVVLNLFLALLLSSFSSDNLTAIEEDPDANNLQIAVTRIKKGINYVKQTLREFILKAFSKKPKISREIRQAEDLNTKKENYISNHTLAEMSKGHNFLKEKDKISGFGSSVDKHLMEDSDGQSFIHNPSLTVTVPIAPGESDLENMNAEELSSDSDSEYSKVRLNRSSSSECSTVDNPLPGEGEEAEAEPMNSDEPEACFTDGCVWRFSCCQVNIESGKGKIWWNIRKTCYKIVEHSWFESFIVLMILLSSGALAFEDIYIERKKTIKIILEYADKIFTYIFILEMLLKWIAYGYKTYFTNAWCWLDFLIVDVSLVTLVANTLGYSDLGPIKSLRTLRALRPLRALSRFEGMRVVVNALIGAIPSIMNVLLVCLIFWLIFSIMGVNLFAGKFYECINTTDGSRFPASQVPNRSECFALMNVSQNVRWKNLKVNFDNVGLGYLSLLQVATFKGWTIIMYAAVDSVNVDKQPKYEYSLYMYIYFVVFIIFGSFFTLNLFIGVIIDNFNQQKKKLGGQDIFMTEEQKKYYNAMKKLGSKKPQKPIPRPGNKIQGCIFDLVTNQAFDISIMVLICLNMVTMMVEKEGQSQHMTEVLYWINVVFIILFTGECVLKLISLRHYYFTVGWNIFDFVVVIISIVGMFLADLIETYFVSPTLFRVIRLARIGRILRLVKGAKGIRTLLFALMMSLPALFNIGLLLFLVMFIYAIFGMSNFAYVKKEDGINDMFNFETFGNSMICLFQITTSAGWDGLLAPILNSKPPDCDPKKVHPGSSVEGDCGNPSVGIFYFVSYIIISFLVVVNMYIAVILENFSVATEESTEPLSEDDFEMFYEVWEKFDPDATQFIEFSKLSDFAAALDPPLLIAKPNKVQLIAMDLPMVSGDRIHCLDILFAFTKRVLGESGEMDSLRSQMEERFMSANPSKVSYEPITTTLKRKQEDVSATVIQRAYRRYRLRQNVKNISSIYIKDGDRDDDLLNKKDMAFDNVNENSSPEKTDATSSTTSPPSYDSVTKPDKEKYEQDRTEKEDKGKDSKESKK
# assay.procedure: Electrophysiology (EP) assay, whole-cell patch clamp, hNav1.7 expressing HEK-293 cells
# Assay type: cell-based
# measurement.setup: hNav1.7 HEK-293 cells; affinity for the inactivated state; read-out: Nav1.7 Activity (μM) EP assay Ki
endpoint.label: Ki

| compound | endpoint.label | test.result |
| --- | --- | --- |
| C[C@H](Nc1cc(C(N)=O)nc(-c2ccc3c(c2)OCCCN3c2ccc(C(F)(F)F)cc2)n1)C(N)=O | Ki | 0.344 µM |
| OC[C@@H](O)c1cccc(-c2ccc3c(c2)COCCN3c2ccc(C(F)(F)F)cc2)n1 | Ki | 0.458 µM |
| CC(C)CN1CCN(S(C)(=O)=O)Cc2cc(-c3cccc([C@H](O)CO)n3)ccc21 | Ki | 2.14 µM |
| CC(=O)N1CCN(c2ccc(C(F)(F)F)cc2)c2ccc(-c3cccc([C@H](O)CO)n3)cc2C1 | Ki | 0.627 µM |
| NC(=O)c1cccc(-c2ccc3c(c2)OCCC3c2ccc(C(F)(F)F)cc2)n1 (stereo not drawn) | Ki | 0.161 µM |
| OC[C@@H](O)c1cccc(-c2ccc3c(c2)CN(CC2CC2)CCN3c2ccc(C(F)(F)F)cc2)n1 | Ki | 0.548 µM |
